Measured Histamine Binding (1 μM) H1, percent inhibition of specific binding accompanies every entry in the list below.
molecular target: histamine receptor H1 (Homo sapiens, UniProt P35367); assay: Histamine H1 radioligand binding ([3H]Pyrilamine); conditions: 1 μM
Sequence (P35367 whole entry): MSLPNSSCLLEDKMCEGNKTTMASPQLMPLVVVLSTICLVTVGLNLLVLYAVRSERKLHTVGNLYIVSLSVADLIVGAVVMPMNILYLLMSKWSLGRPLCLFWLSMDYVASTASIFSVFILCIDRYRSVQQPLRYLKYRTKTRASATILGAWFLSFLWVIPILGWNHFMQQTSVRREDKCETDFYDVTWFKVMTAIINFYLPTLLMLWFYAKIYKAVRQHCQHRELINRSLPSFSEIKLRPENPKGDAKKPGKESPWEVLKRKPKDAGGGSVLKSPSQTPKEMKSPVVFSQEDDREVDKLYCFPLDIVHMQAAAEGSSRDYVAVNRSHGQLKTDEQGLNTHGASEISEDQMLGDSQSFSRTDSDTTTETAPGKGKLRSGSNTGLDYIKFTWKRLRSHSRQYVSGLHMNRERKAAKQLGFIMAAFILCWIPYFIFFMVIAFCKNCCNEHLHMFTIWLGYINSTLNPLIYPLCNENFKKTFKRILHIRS
Give the value in % but do not write % after it.

Study these solved cases before continuing.
C/C(=C\n1c2c(c3ccccc31)CN(C)CC2)c1ccc(F)cc1 [Compound 205] : 39
CCOC(=O)/C=C(/Cn1c2c(c3cc(C)ccc31)CN(C)CC2)c1ccccc1 [Compound No. 347] : 56

Prompt line: Param item = C/C(=C\n1c2c(c3cc(C)ccc31)CN(C)CC2)c1ccc(C)nc1 [compound 85] ; retrieve measured Histamine Binding (1 μM) H1, percent inhibition of specific binding.
Response line: 13

// provenance: patent US8906925B2
